# measurementTarget: μ-receptor (Homo sapiens (Human), UniProt P35372)
# methodNotes: Receptor binding, competitive displacement of [3H]DAMGO
# conditionDetails: 0.25 nM [3H]DAMGO, CHO cell membrane protein, 60 min at 25° C.
Where a name gives a salt, the structure may show the parent alone.

compound: COC1(c2ccnc(C(N)=O)c2)C2CCCC1CN(CC1(F)CCOCC1)C2 (stereo not shown) [Compound 15, hydrochloride]
Ki: > 5 nM
--
compound: COC1(c2ccnc(C(N)=O)c2F)C2CCCC1CN(C1CC1)C2 (stereo not shown) [Compound 57, hydrochloride]
Ki: > 5 nM
--
compound: COC1(c2ccnc(C(N)=O)c2)C2CCCC1CN(C1CCC1)C2 (stereo not shown) [Compound 90, hydrochloride]
Ki: 1 to 5 nM
--
compound: COCCN1CC2CCCC(C1)C2(OC)c1cccc(C(N)=O)c1.Cl (stereo not shown) [Compound 128, hydrochloride]
Ki: < 1 nM
--
compound: COC1(c2cccc(C(N)=O)c2)C2CCCC1CN(C1CCC1)C2 (stereo not shown) [Compound 42, hydrochloride]
Ki: < 1 nM
--
compound: CCCN1CC2CCCC(C1)C2(OC)c1ccnc(C(N)=O)c1.Cl (stereo not shown) [Compound 91, hydrochloride]
Ki: 1 to 5 nM
--
compound: COC1(c2cccc(C(N)=O)c2)C2CCCC1CN(C[C@@H]1[C@@H]3COC[C@@H]31)C2 (stereo partly shown)
Ki: < 1 nM
--
compound: COC1(c2cccc(C(N)=O)c2)C2CCCC1CN(CC1(O)Cc3ccccc3C1)C2 (stereo not shown) [Compound 58, hydrochloride]
Ki: < 1 nM
--
compound: COC1(c2cncc(C(N)=O)c2)C2CCCC1CN(CC1CC1)C2 (stereo not shown) [Compound 28, hydrochloride]
Ki: > 5 nM
--
compound: COC1(c2cccc(C(N)=O)c2O)C2CCCC1CN(C)C2 (stereo not shown) [Compound 49, hydrochloride]
Ki: < 1 nM
--
compound: COC1(c2ccnc(C(N)=O)c2)C2CCCC1CN(CCS(C)(=O)=O)C2 (stereo not shown) [Compound 8, hydrochloride]
Ki: > 5 nM
--
compound: COC1(c2cccc(C(N)=O)c2)C2CCCC1CN(C1CC1)C2 (stereo not shown) [Compound 38, hydrochloride]
Ki: < 1 nM
--
compound: COC1(c2ccnc(C(N)=O)c2)C2CCCC1CN(C[C@H]1C[C@@H]3C[C@@H]3C1)C2 (stereo partly shown) [Compound 102, hydrochloride]
Ki: < 1 nM
--
compound: COC1(c2cccc(C(N)=O)c2)C2CCCC1CN(C1CC3(CCC3)C1)C2 (stereo not shown) [Compound 129, hydrochloride]
Ki: < 1 nM
--
compound: COC1(c2ccnc(C(N)=O)c2)C2CCCC1CN(Cc1ccn[nH]1)C2 (stereo not shown) [Compound 100, hydrochloride]
Ki: < 1 nM
--
compound: COC1(c2ccnc(C(N)=O)c2)C2CCCC1CN(CC(C)(C)C)C2 (stereo not shown) [Compound 105, hydrochloride]
Ki: > 5 nM

* * *

EC50 values by entry
# measurementTarget: human μ opioid receptor (Homo sapiens (Human))
# methodNotes: Functional activity ([35S]GTPγS binding)
# Format: biochemical
# conditionDetails: [35S]GTPγS 0.080 nM, CHO cell membranes, 60 min at 30° C., filtration
Counter-ions that a name gives are not always drawn.

compound: COC1(c2ccnc(C(N)=O)c2)C2CCCC1CN(C1CC(c3ccccc3)C1)C2 (stereo not drawn) [Compound 87, hydrochloride]
EC50: < 10 nM

compound: COC[C@H](C)N1CC2CCCC(C1)C2(OC)c1ccnc(C(N)=O)c1.Cl (single isomer, unassigned) [Compound 61, hydrochloride]
EC50: 10 to 75 nM

compound: COC1(c2ccnc(C(N)=O)c2)C2CCCC1CN(Cc1cnc[nH]1)C2.Cl (stereo not drawn) [Compound 96, hydrochloride]
EC50: 10 to 75 nM

compound: CCCN1CC2CCCC(C1)C2(OC)c1cccc(C(N)=O)c1 (stereo not drawn) [Compound 47, hydrochloride]
EC50: < 10 nM

compound: COC1(c2ccnc(C(N)=O)c2)C2CCCC1CN(CC(C)C)C2 (stereo not drawn) [Compound 92, hydrochloride]
EC50: > 75 nM

compound: COC1(c2ccnc(C(N)=O)c2)C2CCCC1CN(C1CCCC1)C2 (stereo not drawn) [Compound 55, hydrochloride]
EC50: 10 to 75 nM

compound: COC1(c2cccc(C(N)=O)c2F)C2CCCC1CN(C)C2 (stereo not drawn) [Compound 39, hydrochloride]
EC50: 10 to 75 nM

compound: COC1(c2cccc(C(N)=O)c2)C2CCCC1CN([C@@H]1CCCOC1)C2 (single isomer, unassigned) [Compound 141, hydrochloride]
EC50: 10 to 75 nM

compound: COC1(c2ccnc(C(N)=O)c2)C2CCCC1CN([C@H]1CC[C@@H]1C)C2 (stereo in doubt) [Compound 147, hydrochloride]
EC50: 10 to 75 nM

compound: COC1(c2ccnc(C(N)=O)c2)C2CCCC1CN(C(C)C)C2 (stereo not drawn) [Compound 76, hydrochloride]
EC50: 10 to 75 nM

compound: COC1(c2ccnc(C(N)=O)c2)C2CCCC1CN(C1CC(c3ccccc3)C1)C2 (stereo not drawn) [Compound 89, hydrochloride]
EC50: < 10 nM

compound: COC1(c2ccnc(C(N)=O)c2)C2CCCC1CN(Cc1n[nH]c3ccccc13)C2 (stereo not drawn) [Compound 142, hydrochloride]
EC50: < 10 nM

compound: COC1(c2cccc(C(N)=O)c2)C2CCCC1CN(C1CCC(F)(F)CC1)C2 (stereo not drawn) [Compound 9, hydrochloride]
EC50: 10 to 75 nM

compound: COC1(c2ccnc(C(N)=O)c2)C2CCCC1CN(Cc1cncn1C)C2 (stereo not drawn) [Compound 121, hydrochloride]
EC50: > 75 nM

compound: COC1(c2cccc(C(N)=O)c2)C2CCCC1CN(CC1CCC1)C2 (stereo not drawn) [Compound 26, hydrochloride]
EC50: < 10 nM
